Quick list: TGI per entry.
Test system: HS 578T breast
Test: NCI tumour cell line growth inhibition, 48 h
*1 amine or outer side, *2 acyl side, *3 side chain or, on linkers, in order; H or OH if unused. Where a SMILES comes first, the peptide text is derived from it. Bridges are numbered along the chain shown (N, C = ends). Roman numbers before positions name the chains, in order. X23 = CCCCCCCCCCCCCCC(=O)NC(CCCCN[*:2])C(=O)CN1CCCC1C(=O)[*:1]
Parameter measured: TGI

Molecule: O=C(N/N=C/c1ccncc1)c1ccc(C(F)(F)F)nc1Nc1cccc(C(F)(F)F)c1
Endpoint result: 8.51 µM
--
Molecule: Cc1ccc(C2NC(=S)N3C(c4ccc(C)cc4)NC(=S)N23)cc1 (stereo not drawn)
Endpoint result: 25 µM
--
Molecule: Clc1cc2nnn(C3CCCCO3)c2cc1Cl (stereo not drawn)
Endpoint result: > 100 µM
--
Molecule: CN(CCNC(=O)c1cn(C)c2c1ccc1cc(Cl)ccc12)CCNC(=O)c1cn(C)c2c1ccc1cc(Cl)ccc12
Endpoint result: 4.25 µM
--
Molecule: CC(=O)Nc1cc(C(c2ccccc2)c2ccccc2)cc(C(c2ccccc2)c2ccccc2)c1C
Endpoint result: > 100 µM
--
Molecule: CC(=O)O[C@@H]1[C@@H](C)[C@]2(CC(c3ccoc3)OC2O)C2CCC3O[C@]3(C)[C@]2(C)[C@@H]1OC(C)=O (stereo partly drawn)
Endpoint result: > 100 µM
--
Molecule: CCCCCCCCCCCCCCC(=O)NC(CCCCNC(=O)C1CCCN1C(=O)C(CCCCN)NC(=O)C(CCCCN)NC(=O)C(CCCCN)NC(=O)C(CCCNC(=N)N)NC(=O)C(CCCCN)NC(=O)C(N)C(C)C)C(=O)CN1CCCC1C(=O)NCC(=O)NC(Cc1ccccc1)C(=O)N1CCCC1C(=O)NC(CO)C(=O)NC(Cc1ccc(O)cc1)C(=O)NC(CCCCN)C(=O)NC(CC(C)C)C(=O)NC(CCCNC(=N)N)C(=O)N1CCCC1C(=O)NCC(N)=O (stereo not drawn) (I: GFPSYKLRPG-NH2 / II: H-VKRKKKP; linker I:N-II:C via X23; configuration not given here)
Endpoint result: > 100 µM
--
Molecule: O=C1c2ccccc2-c2c1c1c(O)cccc1n2CCCc1ccccc1
Endpoint result: > 100 µM

----------
Test system: T-47D breast
Assay: NCI tumour cell line growth inhibition, 48 h

Compound: C[C@]12CC[C@H]3[C@@H](CC=C4C[C@@H](O)CC[C@@]43C)[C@@H]1C[C@H](N1CCOCC1)[C@@H]2O
Tested on: T-47D breast
TGI: > 100 µM

Compound: OCCSCc1cc(Cl)cc(Cl)c1O
Tested on: T-47D breast
TGI: > 100 µM

Compound: Clc1ccc(/C=C/c2nc(-c3ccc(Cl)cc3)cn3c2nc2ccccc23)cc1
Tested on: T-47D breast
TGI: > 100 µM

Compound: O=C1/C(=C/c2ccc3c(c2)OCO3)Sc2scc(-c3ccc(O)c(O)c3)[n+]21
Tested on: T-47D breast
TGI: > 100 µM

Compound: O=C(Nc1sccc1S(=O)(=O)c1ccc(Cl)cc1)c1ccc(Cl)cc1Cl
Tested on: T-47D breast
TGI: > 100 µM

Compound: CCc1cccc(C(C)C)c1NC1=C([n+]2ccc(C)cc2)C(=O)c2ccccc2C1=O
Tested on: T-47D breast
TGI: 2.24 µM

Compound: c1ccc(CNCCCNCCCCNCCCNCc2ccccc2)cc1
Tested on: T-47D breast
TGI: 39.8 µM

Compound: O=C(Nc1ccc(Cl)cc1Cl)c1cc2nc3ccccc3c(=O)n2c2ccccc12
Tested on: T-47D breast
TGI: > 10 µM

Compound: CN(C)C=NCc1ccc2c(c1)OCO2
Tested on: T-47D breast
TGI: > 100 µM

Compound: O=Cc1c[nH]c2ccc(-c3csc4ccccc34)cc12
Tested on: T-47D breast
TGI: > 100 µM

Compound: O=C(O)c1cccc(S(=O)(=O)NN2C(=O)CSC2c2ccccc2Cl)c1 (stereo unspecified)
Tested on: T-47D breast
TGI: > 100 µM

Compound: Cc1cc2oc(=O)c(Cl)c(Cl)c2c(C)c1Cl
Tested on: T-47D breast
TGI: 40.2 µM

Compound: CS(=O)/C(C#N)=C\C=C\c1cccc(Cl)c1 (stereo unspecified)
Tested on: T-47D breast
TGI: 17 µM

Compound: CC(C)CC(NC=O)C(=O)NC(Cc1ccccc1)NC(=O)CNC(=O)C(C)NC(=O)OC(C)(C)C (stereo unspecified)
Tested on: T-47D breast
TGI: > 100 µM

Compound: O=C1/C(=C\c2ccc([N+](=O)[O-])cc2)CS(=O)(=O)C/C1=C/c1ccc([N+](=O)[O-])cc1
Tested on: T-47D breast
TGI: 2.95 µM

Compound: c1cc2ccc3cc2cc1CNCCOCCNCc1ccc2ccc(cc2c1)CNCCOCCNC3
Tested on: T-47D breast
TGI: > 100 µM

Compound: COc1cc(-c2nccc3[nH]c(-c4cccc5[nH]ccc45)nc23)cc(OC)c1OC
Tested on: T-47D breast
TGI: 27.3 µM

Compound: O=C(NC1CCNCC1)c1[nH]ncc1NC(=O)c1c(Cl)cccc1Cl
Tested on: T-47D breast
TGI: > 100 µM

Compound: Cc1ccn2c(-c3csc(Nc4cccc(O)c4)n3)c(C)nc2c1
Tested on: T-47D breast
TGI: 10.8 µM

Compound: CCOC(=O)CCC(NC(=O)c1ccc(OCc2ccc3nc(OC)c(OC)nc3c2)cc1)C(=O)OCC (stereo unspecified)
Tested on: T-47D breast
TGI: > 100 µM

Compound: c1csc(-c2sc(-c3ccsc3)cc2Cc2ccsc2)c1
Tested on: T-47D breast
TGI: > 10 µM

Compound: CN1C(=O)CN=C(c2ccccc2F)c2cc(N=C=S)ccc21
Tested on: T-47D breast
TGI: > 100 µM

Compound: S=C(Nc1ccc(Cl)cc1)SC1CCCCC1
Tested on: T-47D breast
TGI: > 100 µM

Compound: CC12OC3(C(O)C1O)C(C(=O)O[C@H]3CO[Si](C)(C)C(C)(C)C)C2S(=O)(=O)c1ccccc1 (stereo partly specified)
Tested on: T-47D breast
TGI: 79.3 µM

Compound: COc1cc2c(cc1OCc1ccccc1)N=C[C@@H]1C[C@@H](F)CN1C2=O
Tested on: T-47D breast
TGI: 18.7 µM

Compound: Cc1cc(N2CCN(C)CC2)nc(N(CCNc2ccnc3cc(Cl)ccc23)Cc2ccco2)n1
Tested on: T-47D breast
TGI: 6.41 µM

Compound: Cn1c2c(c3ccccc31)CC(=O)N1CCCC(C1)CC21OCCO1 (stereo unspecified)
Tested on: T-47D breast
TGI: > 100 µM

Compound: N=C1/C(=C/c2ccccc2)C(=O)N=C2SC=NN12
Tested on: T-47D breast
TGI: > 100 µM

Compound: CC(C)(C)C(=O)CC(=O)C(F)(F)C(F)(F)C(F)(F)F.CC(C)(C)C(=O)CC(=O)C(F)(F)C(F)(F)C(F)(F)F.CC(C)(C)C(=O)CC(=O)C(F)(F)C(F)(F)C(F)(F)F.[Er]
Tested on: T-47D breast
TGI: > 100 µM

Compound: Cc1ccc(N(C)S(=O)(=O)c2ccccc2)cc1
Tested on: T-47D breast
TGI: > 100 µM

Compound: Clc1cc2nnn(C3CCCCO3)c2cc1Cl (stereo unspecified)
Tested on: T-47D breast
TGI: > 100 µM

Compound: CC(=O)Nc1c(I)c(C(=O)O)c(I)c(N(C)C(C)=O)c1I
Tested on: T-47D breast
TGI: > 100 µM

Compound: O=C(O)CN(CC(=O)O)c1ccccc1
Tested on: T-47D breast
TGI: > 100 µM

Compound: Cc1cc(CN(Cc2ccccc2)Cc2nc3ccccc3[nH]2)c(O)c(CN(Cc2nc3ccccc3[nH]2)Cc2nc3ccccc3[nH]2)c1
Tested on: T-47D breast
TGI: > 69.5 µM

Compound: Cc1cc(O)c2c(c1)C(=O)C=C(Br)C2=O
Tested on: T-47D breast
TGI: 14.9 µM

Compound: COC(=O)CCN1CCN(CCO)CC1C (stereo unspecified)
Tested on: T-47D breast
TGI: > 10 µM

Compound: CC(=O)NC1CCCN(O)C(=O)/C=C(/C)CCOC(=O)C(NC(C)=O)CCCN(O)C(=O)/C=C(/C)CCOC(=O)C(NC(C)=O)CCCN(O)C(=O)/C=C(/C)CCOC1=O.[Fe] (stereo unspecified)
Tested on: T-47D breast
TGI: > 100 µM

Compound: CC(=O)Nc1cc(C(c2ccccc2)c2ccccc2)cc(C(c2ccccc2)c2ccccc2)c1C
Tested on: T-47D breast
TGI: > 100 µM

Compound: COc1cccc(C(C#N)NC23CC4CC(CC(C4)C2)C3)c1 (stereo unspecified)
Tested on: T-47D breast
TGI: > 100 µM

Compound: O=S(=O)(CC(O)C(Cl)(Cl)Cl)NNc1ccccc1 (stereo unspecified)
Tested on: T-47D breast
TGI: > 100 µM

Compound: CC(=O)OCC1OC(N2C(=O)CC(N)=Nc3ccccc32)C(OC(C)=O)C(OC(C)=O)C1OC(C)=O (stereo unspecified)
Tested on: T-47D breast
TGI: 82.2 µM
